Test system: SEM cells
experimental-protocol: AUC of viability dose-response curve (% viability x log10 dose units); higher = less sensitive
conditions-used: HPLM + 10% dialyzed FBS; 48 h
metric: AUC of viability dose-response curve
Answers are plain numbers.

// solved cases for AUC of viability dose-response curve follow
compound=Clc1cccc(-n2nnnc2NCc2ccccc2Oc2ccccn2)c1Cl measured_value=439
compound=CN(C)Cc1c(C(=O)NCCOc2ccc(C(=O)NO)cc2)oc2ccccc12 measured_value=324
compound=ClC1=CC=C2N/C3=N/C(=O)CN3CC2=C1Cl measured_value=468
compound=COc1ccc(OC)c(-c2nnc3ccc(-c4ccc(OC)c(O[C@@H]5CCOC5)c4)nn23)c1 measured_value=477

Please supply AUC of viability dose-response curve for each of the following items, keeping them in order.
1. CC(C)(O)[C@H]1CC[C@@](C)([C@H]2[C@@H](O)C[C@@]3(C)[C@@H]4C[C@H](O[C@@H]5O[C@H](CO)[C@@H](O)[C@H](O)[C@H]5O)[C@H]5C(C)(C)[C@@H](O[C@@H]6OC[C@@H](O)[C@H](O)[C@H]6O)CC[C@@]56C[C@@]46CC[C@]23C)O1
2. COc1cc([C@@H](CC(=O)O)c2ccc(C)c(CN3C[C@@H](C)Oc4ccccc4[S+]3(=O)[O-])c2)cc2nnn(C)c12
3. COc1ccc(COc2cc3oc(=O)c4cc(C(C)O)ccc4c3cc2OC)cc1 (configuration not stated)

[454, 452, 451]

###

I'd appreciate it if you could supply cell viability values for the items below.
Test system: SEM cells
experimental-protocol: cell viability relative to DMSO control; higher = less cytotoxic
conditions-used: RPMI 5 mM glucose + 10% FBS; 48 h; 0.00234 µM
Give bare numbers, in %.

// solved cases for cell viability follow
smiles_input=CC(C)(O)[C@H]1CC[C@@](C)([C@H]2[C@@H](O)C[C@@]3(C)[C@@H]4C[C@H](O[C@@H]5O[C@H](CO)[C@@H](O)[C@H](O)[C@H]5O)[C@H]5C(C)(C)[C@@H](O[C@@H]6OC[C@@H](O)[C@H](O)[C@H]6O)CC[C@@]56C[C@@]46CC[C@]23C)O1 units_text=% measured_value=123
smiles_input=O=C(CCCCCCC(=O)Nc1cccnc1)NO units_text=% measured_value=105
smiles_input=CN1C(=O)C(=C\C2=C1N=C(NC3=CC=CC(=C3)C(O)=O)N=C2)/C4=C(Cl)C=CC=C4Cl units_text=% measured_value=124
smiles_input=N\C1=N\C2=C(N=C[N]2COCCO)C(=O)N1 units_text=% measured_value=107

Please supply cell viability for each of the following items, keeping them in order.
1. COc1cc2ncn(-c3cc(OCc4ccccc4[S+](C)(=O)[O-])c(C#N)s3)c2cc1OC
2. CCOC(=O)[C@@]1(CCCCCCOc2ccc(Cl)cc2)CO1
3. N#C/C(=C\c1ccc(O)c(O)c1)C(=O)NCc1ccccc1
4. C[C@@H]1CCN(C(=O)CC#N)C[C@@H]1N(C)c1ncnc2[nH]ccc12

1: 110; 2: 119; 3: 100; 4: 99.5

###

I'd appreciate it if you could supply cell viability values for the items below.
Tested on: P12-Ichikawa
experimental-protocol: cell viability relative to DMSO control; higher = less cytotoxic
conditions-used: RPMI 5 mM glucose + 10% dialyzed FBS; 48 h; 0.00702 µM
Numbers only, in %.

// solved cases for cell viability follow
molecule="N#CC(c1ccnc(NCCc2cccnc2)n1)c1nc2ccccc2s1 (configuration not stated)" units_text=% measured_value=122
molecule=CCC[S+](=O)([O-])Nc1ccc(F)c(C(=O)c2c[nH]c3ncc(Cl)cc23)c1F units_text=% measured_value=119
molecule=COc1ccc(C(=O)c2c(C)n(CCN3CCOCC3)c3ccccc23)cc1 units_text=% measured_value=99.4
molecule=NC(=O)[C@H]1CCS[C@@H]2C[C@]3(CCCN3C(=O)Cc3ccc(NC(=O)COc4ccc(Cl)cc4Cl)cc3)C(=O)N12 units_text=% measured_value=130
molecule=CCOc1cc2ncc(C#N)c(Nc3ccc(OCc4ccccn4)c(Cl)c3)c2cc1NC(=O)/C=C/CN(C)C units_text=% measured_value=121

Please supply cell viability for each of the following items, keeping them in order.
1. N[C@H]2CN(CC12CC1)c3c(F)cc4c(c3Cl)[N@@](C=C(C4=O)C(=O)O)C5C[C@H]5F (some centres not stated)
2. N#Cc1ccc(Oc2ccc3c(c2)COB3O)cc1
3. Cc1ccccc1C(OCCN(C)C)c1ccccc1 (configuration not stated)
4. COc1cc(Nc2c(C#N)cnc3cc(OCCCN4CCN(C)CC4)c(OC)cc23)c(Cl)cc1Cl
5. N\C1=N\C2=C(N=C[N]2COCCO)C(=O)N1
6. CC(=O)N[C@@H]1[C@@H](NC(N)=N)\C=C(/O[C@H]1[C@H](O)[C@H](O)CO)C(O)=O

1. 86
2. 113
3. 118
4. 126
5. 111
6. 109
